Where do the numbers come from? From patent US20020015967A1.

Target chain: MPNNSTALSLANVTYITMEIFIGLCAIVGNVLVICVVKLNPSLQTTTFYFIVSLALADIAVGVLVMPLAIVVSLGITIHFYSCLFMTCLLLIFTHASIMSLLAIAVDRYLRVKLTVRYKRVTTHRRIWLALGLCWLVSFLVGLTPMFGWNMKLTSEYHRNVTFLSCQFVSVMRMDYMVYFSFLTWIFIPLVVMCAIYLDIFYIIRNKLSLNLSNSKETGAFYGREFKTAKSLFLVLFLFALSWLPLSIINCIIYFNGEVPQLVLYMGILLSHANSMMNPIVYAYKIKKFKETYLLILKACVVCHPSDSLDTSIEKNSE
MEASUREMENT TYPE: IC50 (µM)
Enter your answer as a number in µM; do not include the unit.

Ask: Can you look up the measured IC50 of O=c1[nH]c(=O)c2nc3ccccc3nc2[nH]1 for me?
Reply: 8.22
